Biological target: T1, cynoSIRPα (NP_001271679), Extracellular Domain + His-Tag (cynomolgus monkey)
T1 construct: also called CySIRPα NP_001271679; not shown: His-Tag
T1 chain: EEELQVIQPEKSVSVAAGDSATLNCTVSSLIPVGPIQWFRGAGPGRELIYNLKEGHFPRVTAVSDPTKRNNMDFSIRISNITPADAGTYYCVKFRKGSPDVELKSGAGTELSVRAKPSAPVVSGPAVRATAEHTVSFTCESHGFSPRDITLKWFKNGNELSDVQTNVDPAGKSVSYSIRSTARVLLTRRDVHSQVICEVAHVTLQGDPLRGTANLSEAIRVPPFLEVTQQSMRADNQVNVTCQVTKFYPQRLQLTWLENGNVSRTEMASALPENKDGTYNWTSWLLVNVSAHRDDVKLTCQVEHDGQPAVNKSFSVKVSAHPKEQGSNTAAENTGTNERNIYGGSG
Test: SPR, antibody captured on Protein A/G, ECD-His analyte, 1:1 fit
readout: pKd
// returns pKd (minus log10 of molar concentration), number only

binder	endpointResult
Antibody E8 (antibody, human IgG1, kappa, L234A L235A, V domains shown) VH: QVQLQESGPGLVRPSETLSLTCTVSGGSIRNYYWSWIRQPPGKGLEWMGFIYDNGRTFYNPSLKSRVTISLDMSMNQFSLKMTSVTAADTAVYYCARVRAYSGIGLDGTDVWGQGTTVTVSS VL: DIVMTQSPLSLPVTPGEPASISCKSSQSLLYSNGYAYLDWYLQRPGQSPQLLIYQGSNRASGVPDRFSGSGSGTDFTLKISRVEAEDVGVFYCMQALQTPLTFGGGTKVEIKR	7.75

Attention now turns to another entry.
For Antibody E21 (antibody, human IgG1, kappa, L234A L235A, V domains shown) VH: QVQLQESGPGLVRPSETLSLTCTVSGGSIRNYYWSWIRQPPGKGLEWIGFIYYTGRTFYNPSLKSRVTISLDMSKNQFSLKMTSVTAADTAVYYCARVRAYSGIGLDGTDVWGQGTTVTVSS VL: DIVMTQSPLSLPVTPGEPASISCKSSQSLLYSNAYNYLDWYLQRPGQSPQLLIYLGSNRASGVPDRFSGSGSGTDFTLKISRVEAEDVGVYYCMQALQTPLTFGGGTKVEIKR the binder record lists pKd as 6.97
